Reported scaled log2 fold change values follow for various variants
B1: library; numbered along this chain (parent)
chain: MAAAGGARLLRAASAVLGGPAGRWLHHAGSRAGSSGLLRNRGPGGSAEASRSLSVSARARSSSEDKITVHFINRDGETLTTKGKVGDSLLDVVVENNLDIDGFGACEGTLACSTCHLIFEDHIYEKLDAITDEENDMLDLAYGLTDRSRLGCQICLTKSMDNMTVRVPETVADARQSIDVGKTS

variants of: B1; test: scaled log2 fold change in cell abundance, elesclomol vs control (0 = silent mean, 1 = nonsense mean) (scaled log2 ratio); higher = higher viability under elesclomol (loss of FDX1 cuproptosis function); details: with HEK293T FDX1 KO; elesclomol 40 nM; glucose 10 mM; 11 days;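 also: variant abundance is its share of total variant reads in each endpoint sample, from next-generation sequencing of the integrated ORF PCR-amplified out of genomic DNA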

{"VARIANT_CODE": "V55G", "scaled log2 fold change": -0.106}
{"VARIANT_CODE": "L9P", "scaled log2 fold change": 0.0788}
{"VARIANT_CODE": "D75P", "scaled log2 fold change": -0.0681}
{"VARIANT_CODE": "I178L", "scaled log2 fold change": -0.187}
{"VARIANT_CODE": "H116W", "scaled log2 fold change": 0.125}
{"VARIANT_CODE": "G102I", "scaled log2 fold change": 0.0202}
{"VARIANT_CODE": "E133I", "scaled log2 fold change": -0.339}
{"VARIANT_CODE": "H27E", "scaled log2 fold change": -0.0257}
{"VARIANT_CODE": "A57Q", "scaled log2 fold change": -0.354}
{"VARIANT_CODE": "C152W", "scaled log2 fold change": 1.28}
{"VARIANT_CODE": "R60W", "scaled log2 fold change": 0.972}
{"VARIANT_CODE": "I154R", "scaled log2 fold change": 0.787}
{"VARIANT_CODE": "S52E", "scaled log2 fold change": 0.0946}
{"VARIANT_CODE": "A13Q", "scaled log2 fold change": 0.653}
{"VARIANT_CODE": "Q176I", "scaled log2 fold change": -0.471}
{"VARIANT_CODE": "H70K", "scaled log2 fold change": 0.573}
{"VARIANT_CODE": "I178D", "scaled log2 fold change": 1.21}
{"VARIANT_CODE": "R39K", "scaled log2 fold change": -0.451}
{"VARIANT_CODE": "A32I", "scaled log2 fold change": 0.722}
{"VARIANT_CODE": "K66C", "scaled log2 fold change": -0.0245}
{"VARIANT_CODE": "C155T", "scaled log2 fold change": -0.435}
{"VARIANT_CODE": "T164D", "scaled log2 fold change": 0.818}
{"VARIANT_CODE": "E48R", "scaled log2 fold change": 0.683}
{"VARIANT_CODE": "D101V", "scaled log2 fold change": -0.613}
{"VARIANT_CODE": "N40D", "scaled log2 fold change": -0.577}
{"VARIANT_CODE": "S177M", "scaled log2 fold change": 0.0434}
{"VARIANT_CODE": "H70R", "scaled log2 fold change": -0.0802}
{"VARIANT_CODE": "L98I", "scaled log2 fold change": -0.482}
{"VARIANT_CODE": "D136T", "scaled log2 fold change": 0.431}
{"VARIANT_CODE": "V171P", "scaled log2 fold change": 0.0269}
{"VARIANT_CODE": "L10H", "scaled log2 fold change": -0.209}
{"VARIANT_CODE": "I118A", "scaled log2 fold change": -0.147}
{"VARIANT_CODE": "K84E", "scaled log2 fold change": -0.39}
{"VARIANT_CODE": "D173S", "scaled log2 fold change": -0.827}
{"VARIANT_CODE": "L90H", "scaled log2 fold change": 1.81}
{"VARIANT_CODE": "R166Q", "scaled log2 fold change": -0.083}
{"VARIANT_CODE": "E48I", "scaled log2 fold change": 0.905}
{"VARIANT_CODE": "L156T", "scaled log2 fold change": 0.0718}
{"VARIANT_CODE": "V55F", "scaled log2 fold change": -0.339}
{"VARIANT_CODE": "D121C", "scaled log2 fold change": -0.257}
{"VARIANT_CODE": "H70I", "scaled log2 fold change": -0.0895}
{"VARIANT_CODE": "D91L", "scaled log2 fold change": -0.127}
{"VARIANT_CODE": "T164W", "scaled log2 fold change": -0.13}
{"VARIANT_CODE": "D99M", "scaled log2 fold change": 0.944}
{"VARIANT_CODE": "E133A", "scaled log2 fold change": 1.27}
{"VARIANT_CODE": "I118G", "scaled log2 fold change": -0.108}
{"VARIANT_CODE": "D161H", "scaled log2 fold change": -0.464}
{"VARIANT_CODE": "D173G", "scaled log2 fold change": -0.138}
{"VARIANT_CODE": "R41M", "scaled log2 fold change": 0.0788}
{"VARIANT_CODE": "L156E", "scaled log2 fold change": 1.53}
{"VARIANT_CODE": "D65F", "scaled log2 fold change": -0.119}
{"VARIANT_CODE": "V55I", "scaled log2 fold change": 1.26}
{"VARIANT_CODE": "N73A", "scaled log2 fold change": -0.233}
{"VARIANT_CODE": "A28M", "scaled log2 fold change": -0.198}
{"VARIANT_CODE": "C112F", "scaled log2 fold change": 1.25}
{"VARIANT_CODE": "N97D", "scaled log2 fold change": -0.622}
{"VARIANT_CODE": "L25C", "scaled log2 fold change": 0.0546}
{"VARIANT_CODE": "W24R", "scaled log2 fold change": -0.244}
{"VARIANT_CODE": "A13T", "scaled log2 fold change": -0.0204}
{"VARIANT_CODE": "E134L", "scaled log2 fold change": 1.21}
{"VARIANT_CODE": "L17R", "scaled log2 fold change": 0.603}
{"VARIANT_CODE": "L140H", "scaled log2 fold change": 0.795}
{"VARIANT_CODE": "P20E", "scaled log2 fold change": 1.08}
{"VARIANT_CODE": "E77M", "scaled log2 fold change": -0.139}
{"VARIANT_CODE": "K84A", "scaled log2 fold change": 0.375}
{"VARIANT_CODE": "R41T", "scaled log2 fold change": 0.274}
